# TARGET SYSTEM: human 5-HT6 receptor (Homo sapiens)
# Construct: host or cells: CHO-K1 cells, stably transfected; membranes prepared in house
# Sequence (P50406 whole entry): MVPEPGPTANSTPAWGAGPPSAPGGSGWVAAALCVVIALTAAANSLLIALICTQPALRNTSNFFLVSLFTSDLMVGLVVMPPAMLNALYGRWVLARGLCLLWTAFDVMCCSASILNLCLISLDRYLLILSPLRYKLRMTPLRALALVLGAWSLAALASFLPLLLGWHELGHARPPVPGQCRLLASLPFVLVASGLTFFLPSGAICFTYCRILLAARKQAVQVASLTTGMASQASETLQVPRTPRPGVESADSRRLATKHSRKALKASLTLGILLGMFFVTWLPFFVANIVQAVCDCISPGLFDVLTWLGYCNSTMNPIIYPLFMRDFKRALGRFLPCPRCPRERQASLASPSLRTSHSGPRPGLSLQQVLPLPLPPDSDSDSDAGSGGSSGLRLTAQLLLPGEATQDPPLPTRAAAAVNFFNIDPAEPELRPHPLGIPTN
# TEST NAME: Human 5-HT6 Receptor Binding Assay ([3H]LSD displacement, scintillation beads)
# CONDITION INFO: membranes of CHO-K1 cells with recombinant human 5-HT6, 4 nM [3H]LSD; Table 1, class symbols; read-out: h5-HT6 (Ki)
# Protocol: Human 5-HT6 Receptor Binding Assay Membranes were prepared from CHO—K1 cells stably transfected with the human 5-HT6 receptor (Euroscreen; ES-316-C). […] The membranes were centrifuged at 40,000×g for 30 min at 4° C. and the pellets were resuspended in membrane buffer containing 250 mM sucrose, and protein concentration was determined using the Coomassie Plus kit (Pierce Biotechnology, Rockford, Ill.). […]
pKi: −log10 of the molar value. Where a name gives a salt, the structure may show the parent alone.
Entries and their measured pKi follow.

Here's what some known entries look like.
INSERT INTO assay_data (molecule, target_system, recorded_measurement) VALUES
  ('O=S(=O)(c1cc(F)cc(F)c1)c1ccc2oc3c(c2c1)CCNC3', 'human 5-HT6 receptor (Homo sapiens)', '> 6.30'),
  ('O=S(=O)(c1cccc(F)c1)c1ccc2c3c(oc2c1)C(CCBr)NCC3 (stereo not shown)', 'human 5-HT6 receptor (Homo sapiens)', '> 6.30'),
  ('CC12CCNCC1Oc1cc(S(=O)(=O)c3cc(F)cc(F)c3)ccc12 (stereo not shown)', 'human 5-HT6 receptor (Homo sapiens)', '> 6.30'),
  ('O=S(=O)(c1ccc2c(c1)OC1CNCCC21)c1ccccc1-c1ccccc1 (stereo not shown) [Example 152]', 'human 5-HT6 receptor (Homo sapiens)', '> 6.30'),
  ('CN(C)C(=O)c1cccc(S(=O)(=O)c2ccc3c4c(oc3c2)CNCC4)c1 [Example 474, hydrochloride]', 'human 5-HT6 receptor (Homo sapiens)', '< 6.00');

Q) Identify pKi associated with the molecule O=S(=O)(c1cc(F)cc(F)c1)c1ccc2c3c(oc2c1)C1(CCCOC1)NCC3 (racemic)
A) > 6.30

Q) Identify pKi associated with the molecule CCOc1cc(F)cc(S(=O)(=O)c2ccc3c(c2)OC2CNCCC32C)c1 (stereo not shown)
A) > 6.30

Q) Identify pKi associated with the molecule COc1ccc(S(=O)(=O)Oc2ccc3c(c2)C2CCNCC2O3)cc1OC (stereo not shown)
A) 6.00 to 6.30

Q) Identify pKi associated with the molecule CC12CCNCC1Oc1ccc(OS(=O)(=O)Cc3ccc(F)cc3)cc12 (stereo not shown)
A) < 6.00

====

Entries and their measured Ki follow.
# TARGET SYSTEM: human 5-HT6 receptor (Homo sapiens)
# Construct: host or cells: CHO-K1 cells, stably transfected; membranes prepared in house
# TEST NAME: Human 5-HT6 Receptor Binding Assay ([3H]LSD displacement, scintillation beads)
# CONDITION INFO: membranes of CHO-K1 cells with recombinant human 5-HT6, 4 nM [3H]LSD; Table 1, class symbols; read-out: h5-HT6 (Ki)

INSERT INTO measurements (compound, recorded_measurement) VALUES
  ('CC12CCNCC1Oc1cc(S(=O)(=O)c3cccc(F)c3)ccc12 (racemic)', '< 500 nM');

Q) Identify Ki associated with the compound [O-][S+](c1ccc2c(c1)OC1CNCCC21)c1cccnc1F (centres unmarked)
A) > 1000 nM

Q) Identify Ki associated with the compound `O=S(=O)(c1ccccc1)c1ccc2c3c(oc2c1)CN(CCCO)CC3`
A) < 500 nM

Q) Identify Ki associated with the compound CC(C)Oc1cccc(S(=O)(=O)c2ccc3c(c2)C2(C)CCNCC2O3)c1 (centres unmarked)
A) < 500 nM

Q) Identify Ki associated with the compound COc1cc(OC)cc(S(=O)(=O)c2ccc3c(c2)OC2CNCCC32C)c1 (centres unmarked) [Example 487]
A) < 500 nM

Q) Identify Ki associated with the compound O=S(=O)(c1cccc(OCC2CCCCO2)c1)c1ccc2c(c1)OC1CNCCC21 (centres unmarked)
A) < 500 nM

Q) Identify Ki associated with the compound Cc1cccc(S(=O)(=O)c2ccc3c(c2)OC2CNCCC32)n1 (centres unmarked)
A) < 500 nM

Q) Identify Ki associated with the compound O=S(=O)(Oc1ccc2c(c1)OC1CNCCC21)c1ccc(Cl)cc1 (centres unmarked)
A) < 500 nM
